target: Aryl Hydrocarbon Receptor (AhR) (Oryctolagus cuniculus, UniProt O02747); construct: from tissue; host or cells: female New Zealand rabbit liver cytosol; assay: Ligand binding competition assay (Aryl Hydrocarbon Receptor), [3H]TCDD displacement; design: species or system female New Zealand rabbit (liver cytosol); conditions: trans-stilbenes; resveratrol = 1
Sequence (O02747 whole entry): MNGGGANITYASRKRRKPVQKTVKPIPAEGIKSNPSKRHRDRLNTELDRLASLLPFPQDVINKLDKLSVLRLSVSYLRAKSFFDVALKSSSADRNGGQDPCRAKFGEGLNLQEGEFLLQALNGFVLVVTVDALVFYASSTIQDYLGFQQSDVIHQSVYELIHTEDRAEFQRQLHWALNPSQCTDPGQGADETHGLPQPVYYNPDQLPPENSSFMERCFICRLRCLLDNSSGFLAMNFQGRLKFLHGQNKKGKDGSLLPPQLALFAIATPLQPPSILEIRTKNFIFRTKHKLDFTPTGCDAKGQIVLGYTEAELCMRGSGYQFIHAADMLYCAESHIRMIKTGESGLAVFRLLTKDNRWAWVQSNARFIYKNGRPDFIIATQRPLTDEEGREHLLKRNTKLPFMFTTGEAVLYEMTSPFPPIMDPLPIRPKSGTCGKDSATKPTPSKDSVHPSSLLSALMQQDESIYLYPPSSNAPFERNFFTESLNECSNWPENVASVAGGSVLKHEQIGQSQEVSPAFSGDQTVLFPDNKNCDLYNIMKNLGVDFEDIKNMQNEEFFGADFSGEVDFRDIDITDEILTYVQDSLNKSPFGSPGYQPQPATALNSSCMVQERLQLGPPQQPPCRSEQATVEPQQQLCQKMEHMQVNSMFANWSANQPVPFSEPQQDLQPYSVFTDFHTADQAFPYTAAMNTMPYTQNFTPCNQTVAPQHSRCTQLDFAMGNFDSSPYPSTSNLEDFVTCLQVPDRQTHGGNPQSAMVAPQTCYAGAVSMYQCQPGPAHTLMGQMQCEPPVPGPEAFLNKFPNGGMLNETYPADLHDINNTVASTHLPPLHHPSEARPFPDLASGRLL
Reported AhR RBA (relative binding affinity) values are given for each entry in this list.
Respond using a number only.

Some solved entries appear below for comparison.
- MOL_SMILES: "Fc1ccc(/C=C/c2cc(F)cc(F)c2)cc1"
  AhR RBA (relative binding affinity): 39.1
- MOL_SMILES: "Clc1ccc(/C=C/c2cc(Cl)cc(Cl)c2)cc1"
  AhR RBA (relative binding affinity): 130.0
- MOL_SMILES: "CCOc1ccc(/C=C/c2cc(OC)cc(OC)c2)cc1"
  AhR RBA (relative binding affinity): 39.8
- MOL_SMILES: "CCCCOc1ccc(/C=C/c2cc(OC)cc(OC)c2)cc1"
  AhR RBA (relative binding affinity): 8.1
- MOL_SMILES: "COc1ccc(/C=C/c2cc(Cl)cc(Cl)c2)cc1"
  AhR RBA (relative binding affinity): 112.0

Request: Please give the measured AhR RBA (relative binding affinity) for this molecule: COc1ccc(/C=C/c2cc(OC)cc(OC)c2)cc1
Response: 21.0

Request: And then COc1ccc(/C=C/c2cc(F)cc(F)c2)cc1 , what is it?
Response: 17.5

Request: Then what about the molecule FC(F)(F)c1ccc(/C=C/c2cc(Cl)cc(Cl)c2)cc1 ?
Response: 791.0

Request: Next record, please: COc1cc(/C=C/c2ccc(F)cc2)cc(OC)c1
Response: 32.1

Request: Now the same for FC(F)(F)c1ccc(/C=C/c2cc(C(F)(F)F)cc(C(F)(F)F)c2)cc1
Response: 52.1
